# melting point values compiled below
reportedMetric: melting point

• COc1c(C(=O)c2cccc(O)c2)cc(-c2ccc[nH]c2=O)cc1C(C)(C)C = 145 to 148 °C
• CC(C)(C)c1cc(CCc2ccc(NS(C)(=O)=O)cc2)c(OCCO)c(-c2ccc[nH]c2=O)c1 = 223 to 225 °C
• CC(C)(C)c1cc(Cc2ccccc2)c(O)c(-c2ccc[nH]c2=O)c1 = 236 to 237 °C
• CC(C)(C)c1cc(CCc2ccc(F)cc2)c(O)c(-c2ccc[nH]c2=O)c1 = 178 to 179 °C
• CC1(C)COc2c(-c3ccc[nH]c3=O)cc(NC(=O)c3ccc(NS(C)(=O)=O)cc3)cc21 = > 300 °C
• CC(C)(C)c1cc(Cc2ccccc2)cc(-c2ccc[nH]c2=O)c1 = 180 to 181 °C
• COc1c(CCc2cnc(NS(C)(=O)=O)nc2)cc(-c2ccc[nH]c2=O)cc1C(C)(C)C = 282 to 283 °C
• COc1c(C(=O)c2sccc2C)cc(-c2ccc[nH]c2=O)cc1C(C)(C)C = 123.3 to 125.5 °C
• CC(C)(C)c1cc(Br)c(O)c(-c2ccc[nH]c2=O)c1 = 243.4 to 246.2 °C
• COc1c(CCc2ccc(NS(C)(=O)=O)cc2)cc(-c2ccc(C)[nH]c2=O)cc1C(C)(C)C = 239 to 241 °C
• CC1(C)COc2c(-c3ccc[nH]c3=O)cc(/C=C/c3ccc(NS(C)(=O)=O)cc3)cc21 = 231 to 233 °C
• Cc1cc(-c2cc(Cl)c[nH]c2=O)cc(C(C)(C)C)c1 = 232 to 233 °C
• COc1c(NC(=O)c2ccccc2)cc(-c2ccc[nH]c2=O)cc1C(C)(C)C = 212 to 216 °C
• COc1c(C(=O)NC2CCCCC2)cc(-c2ccc[nH]c2=O)cc1C(C)(C)C = 136 to 138 °C
• CC(C)(C)c1cc(-c2ccc[nH]c2=O)ccc1OC(F)F = 174 to 175 °C
• CNC(=O)Nc1ccc(CCc2cc(-c3ccc[nH]c3=O)cc(C(C)(C)C)c2)cc1 = 237 to 239 °C
• CCc1cc(C(C)(C)C)cc(-c2ccc[nH]c2=O)c1O = 224.2 to 226.2 °C
• COc1c(NC(=O)c2ccc(N)c(F)c2)cc(-c2ccc[nH]c2=O)cc1C(C)(C)C = 283 to 285 °C
• COc1c(CCc2ccc(NS(C)(=O)=O)cc2)cc(-c2ccc[nH]c2=O)cc1C1(C)CC1 = 192 to 194 °C
• CC1(C)COc2c(-c3cc(F)c[nH]c3=O)cc(/C=C/c3ccc(NS(C)(=O)=O)cc3)cc21 = 264 to 266 °C
• Cc1cc(-c2cc(C)c[nH]c2=O)cc(C(C)(C)C)c1 = 212 to 213 °C
• CC(C)(C)c1cc(CO)c(O)c(-c2ccc[nH]c2=O)c1 = 167 to 168 °C
• COc1c(CCc2ccc(NS(C)(=O)=O)c(F)c2)cc(-c2ccc[nH]c2=O)cc1C(C)(C)C = 111 to 113 °C
• CC(C)(C)c1cc(-c2ccc[nH]c2=O)cc(S(=O)(=O)c2ccccc2)c1 = 252 to 253 °C
• COc1c(C(=O)c2ccc(F)cc2)cc(-c2ccc[nH]c2=O)cc1C(C)(C)C = 203 to 205 °C
• CC(C)(C)c1cc(CCc2ccc(NS(C)(=O)=O)cn2)c(C#N)c(-c2ccc[nH]c2=O)c1 = 143 to 145 °C
• COc1c(/C=C/c2ccc(NS(C)(=O)=O)cc2C#N)cc(-c2cc(F)c[nH]c2=O)cc1C(C)(C)C = 158 to 160 °C
• COc1c(C(=O)Nc2ccc(NS(C)(=O)=O)cc2C)cc(-c2ccc[nH]c2=O)cc1C(C)(C)C = 278 to 280 °C
• COc1c(C(=O)c2cccc(CN)c2)cc(-c2ccc[nH]c2=O)cc1C(C)(C)C = 110 to 115 °C
• CC1(C)COc2c(/C=C/c3ccc(NS(C)(=O)=O)cc3)cc(-c3ccc[nH]c3=O)cc21 = 284 to 286 °C
• COc1c(NC(=O)c2ccc(NS(C)(=O)=O)cc2Cl)cc(-c2ccc[nH]c2=O)cc1C(C)(C)C = 263 to 265 °C
• CS(=O)(=O)Nc1ccc(/C=C/c2cc(-c3ccc[nH]c3=O)cc(C3(CO)CC3)c2)cc1 = 148 to 150 °C
• COc1c(C(=O)c2cccc(C(N)=O)c2)cc(-c2ccc[nH]c2=O)cc1C(C)(C)C = 150 to 160 °C
• COc1c(/C=C/c2ccc(NS(C)(=O)=O)cc2)cc(-c2ccc[nH]c2=O)c2c1C(C)(C)CC2 = 283 to 286.6 °C
• CC(C)(C)c1cc(/C=C/c2ccc(NS(C)(=O)=O)cc2C#N)cc(-c2ccc[nH]c2=O)c1 = > 300 °C
